Hey, just so you know, these numbers are from the supplement of paper PMC13380429.

- Test system: Vero E6 infected with SARS-CoV-2
- method: inhibition of SARS-CoV-2 cytopathic effect; higher = more antiviral protection, active = above 15
- condition.info: 8.33 nM; 48 h
recorded.endpoint: inhibition of SARS-CoV-2 cytopathic effect (%)
Give the quantity in %, number only.

compound	val
N#Cc1cc(-c2n[nH]c(-c3ccncc3)n2)ccn1 [topiroxostat]	0.34

For the compound shown here, Cc1ccc(C(=O)Nc2ccc(S(=O)(=O)O)c3cc(S(=O)(=O)O)cc(S(=O)(=O)O)c23)cc1NC(=O)c1cccc(NC(=O)Nc2cccc(C(=O)Nc3cc(C(=O)Nc4ccc(S(=O)(=O)O)c5cc(S(=O)(=O)O)cc(S(=O)(=O)O)c45)ccc3C)c2)c1 [suramin] , give the reported inhibition of SARS-CoV-2 cytopathic effect.
0.17

Looking for the measured inhibition of SARS-CoV-2 cytopathic effect of OC[C@@H](O)[C@@H](O)[C@H](O)[C@@H](O)CO [sorbitol] , can you help?
-0.64
